Target: human glucagon receptor (human, UniProt P47871 26-477)
Sequence (P47871 26-477): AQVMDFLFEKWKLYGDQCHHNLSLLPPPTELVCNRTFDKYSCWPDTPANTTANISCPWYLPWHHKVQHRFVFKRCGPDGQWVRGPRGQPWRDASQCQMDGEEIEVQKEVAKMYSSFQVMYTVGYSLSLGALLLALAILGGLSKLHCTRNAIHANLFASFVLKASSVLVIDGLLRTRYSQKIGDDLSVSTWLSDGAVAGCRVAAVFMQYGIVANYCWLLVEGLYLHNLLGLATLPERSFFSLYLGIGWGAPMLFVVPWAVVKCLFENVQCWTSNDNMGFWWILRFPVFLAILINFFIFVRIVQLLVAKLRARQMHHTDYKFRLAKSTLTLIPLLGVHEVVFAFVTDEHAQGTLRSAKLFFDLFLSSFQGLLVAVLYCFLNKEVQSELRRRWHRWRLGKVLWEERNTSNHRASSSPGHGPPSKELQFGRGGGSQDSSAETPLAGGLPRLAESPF
Experiment: cell-based or functional assay
Positions of bridges follow the written chain, without caps; N, C: chain ends. Non-standard residues stand in square brackets, D forms with d. No end group written: not given here. Aib = CC(C)(N)C(=O)O
ASSAY METRIC: In vitro Activity (Relative Activity of SEQ ID NO: 1, %), from cAMP EC50
Numbers only, in %.

Please review the following examples before continuing.
BINDER	RECORDED RESULT
Y[Aib]QGTFVSDYSKYLDERRAKDFVQWLMNTC (bridge 16-20; also: ring between positions 16 and 20, kind not given here) [glucagon derivative of SEQ ID NO: 40]	40.8
YXQGTFTSDYSKYLDSRRAQDFVQWLMNT (X at position 2 = aminoisobutyric acid (Aib)) [glucagon derivative of SEQ ID NO: 33]	108
HSQGTFTSDYSKYLDSCEAQDFVQWLMNT [glucagon derivative of SEQ ID NO: 5]	0.3
Y[Aib]QGTFVSDYSKYLDECRAKDFVQWLMNT (bridge 16-20; also: ring between positions 16 and 20, kind not given here) [glucagon derivative of SEQ ID NO: 27]	93.6
Y[Aib]QGTFTSDYSKYLCEKRAKEFVQWLMNT (bridge 16-20; also: ring between positions 16 and 20, kind not given here) [glucagon derivative of SEQ ID NO: 19]	12.1

Form: binder = Y[Aib]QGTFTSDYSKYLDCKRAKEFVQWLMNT (bridge 17-21; also: ring between positions 17 and 21, kind not given here) [glucagon derivative of SEQ ID NO: 31] ; In vitro Activity (Relative Activity of SEQ ID NO: 1, %), from cAMP EC50 = 6.3
